assay_protocol: Stability of a trace element mix in glass bottle, 6 months at 5° C. or 40° C. (Table V)
run_conditions: TE mix, pH 2.2, 200 mM malic acid, glass bottle (about 3 ppm DO), heat sterilized, 6 months at 40° C.
Listed here are compounds together with their documented Concentration recovered, T6M 40° C..
property_label: Concentration recovered, T6M 40° C. (ng/mL)

1. [Mo] ... 707
2. [Cr] ... 329
3. [Cu] ... 10504
4. I [I, iodide] ... 3401
5. [Zn] ... 171822
6. [Se] ... 2461

====

assay_protocol: Stability of a trace element mix in glass bottle, 6 months at 5° C. or 40° C. (Table V)
run_conditions: TE mix, pH 2.2, 200 mM malic acid, glass bottle (about 3 ppm DO), heat sterilized, 6 months at 40° C.; vs theoretical concentration
property_label: Percentage of the recovered TE, T6M 40° C. (%)

1. F [F, fluoride] ... 88
2. [Se] ... 87.7
3. I [I, iodide] ... 84.4
4. [Zn] ... 84.4
5. [Mo] ... 86.6
6. [Cu] ... 87.1
7. [Cr] ... 83.1
